- SYSTEM: Peroxisome proliferator-activated receptor gamma (Homo sapiens)
- EXPERIMENT: OT_PPARg_PPARgSRC1_1440: Odyssey Thera (OT) 24-hour Protein-Complementation Assay for Peroxisome Proliferator-activated Receptor Gamma/ SRC-1 Co-activator (AID 2283388);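 note: nuclear to cytoplasmic ratio of reconstituted Venus YFP fluorescence in fixed imaged cells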
The source made the active and inactive calls. Rule for the calls: active = hit-call score of the fitted dose curve at least 0.9, where 1 is the maximum; inconclusive = response in the unintended direction; inactive = score below 0.9.

COMPOUND: CCCCOC(=O)CC(CC(=O)OCCCC)(OC(C)=O)C(=O)OCCCC
outcome: inactive
--
COMPOUND: COc1cccc([C@H](O)C2CCN(CCc3ccc(F)cc3)CC2)c1OC
outcome: inactive
--
COMPOUND: c1ccc2ccccc2c1
outcome: inactive
--
COMPOUND: CCN(Cc1cccc(S(=O)(=O)O)c1)c1ccc(C(=C2C=CC(=[N+](CC)Cc3cccc(S(=O)(=O)O)c3)C=C2)c2ccccc2S(=O)(=O)[O-])cc1
outcome: inactive
--
COMPOUND: COCC(C)OCC(C)OCC(C)O (configuration not stated)
outcome: inactive
--
COMPOUND: Cc1c2ccccc2c(C)c2c1ccc1ccccc12
outcome: inactive
--
COMPOUND: Cc1cn([C@H]2C[C@H](N=[N+]=[N-])[C@@H](CO)O2)c(=O)[nH]c1=O
outcome: inactive
--
COMPOUND: OCCO
outcome: inactive
--
COMPOUND: Cc1ccc2oc(CN(Cc3ccccc3)C(=O)Nc3c(F)cc(F)cc3F)c(-c3ccc(Cl)cc3)c2c1
outcome: inactive
--
COMPOUND: Oc1ccc2ccccc2c1
outcome: inactive
--
COMPOUND: CCCOC(=O)c1cc(O)c(O)c(O)c1
outcome: inactive
--
COMPOUND: O=c1c(-c2ccc(O)cc2)coc2cc(O)cc(O)c12
outcome: inactive
